Overview of reported protein stability index across a group of variants:
B1: BEX1 (parent)
chain: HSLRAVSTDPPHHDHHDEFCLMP

# Variants of: B1
# Experiment: protein stability index of a GFP-peptide fusion (GPS, HEK-293T) (PSI 1-6); higher = more stable;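 also: lentivirally expressed fusions sorted by FACS into six bins by GFP to DsRed ratio, PSI derived from sequencing read proportions per bin multiplied by bin number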
# Condition: c terminus: native

Residue change | protein stability index
L21V | 2.53
L21N | 2.84
F19Q | 2.26
H16F | 2.67
V6G | 2.49
S7I | 2.93
H13W | 1.65
M22W | 2.48
H1S | 2.26
S2K | 1.89
H1L | 1.68
H15N | 2.07
H16M | 2.2
D14I | 3.58
V6I | 2.17
H13L | 2.11
D17T | 2.33
H15R | 2.15
E18T | 2.2
D14W | 1.87
V6T | 1.79
P10S | 2.05
D14C | 1.99
H16K | 1.86
M22C | 2.48
L3D | 2.14
D17A | 1.76
D17M | 4.33
P23C | 2.32
D14Q | 2.61
E18Y | 2.08
C20K | 4.4
D14S | 2.34
D17V | 2.93
V6F | 2.8
H13F | 3.29
F19S | 3.38
S7K | 2.62
H13I | 2.16
S2Y | 3.18
H16E | 2.84
